meta.source: paper PMC6001238

Listed next: entries and their corresponding pIC50.
Tested on: L1210, CEM and HeLa cell lines
Procedure Text: Cytostatic activity, average or summary over L1210, CEM and HeLa
Format: cell-based
Conditions Used: average of L1210, CEM and HeLa; read-out: Toxicity (IC50) Average
In textbook form, pIC50 equals minus log to base ten of the concentration in mol/L.

| Molecule | Readout Number |
| --- | --- |
| CN[C@H](CC(C)C)C(=O)N[C@H]1C(=O)N[C@@H](CC(N)=O)C(=O)N[C@H]2C(=O)N[C@H]3C(=O)N[C@H](C(=O)N[C@H](C(=O)NCC(=O)Nc4ccc(NS(=O)(=O)c5ccc(Cl)cc5Cl)cc4)c4cc(O)cc(O)c4-c4cc3ccc4O)[C@H](O)c3ccc(c(Cl)c3)Oc3cc2cc(c3O[C@@H]2O[C@H](CO)[C@@H](O)[C@H](O)[C@H]2O[C@H]2C[C@](C)(N)[C@H](O)[C@H](C)O2)Oc2ccc(cc2Cl)[C@H]1O [Vanc-61] | 3.71 |

Here is another molecule to look at.
Entry CNC(CC(C)C)C(=O)NC1C(=O)NC(CC(N)=O)C(=O)NC2C(=O)NC3C(=O)NC(C(=O)NC(C(=O)NCC(=O)Nc4ccc(C(=O)c5ccccc5)cc4)c4cc(O)cc(O)c4-c4cc3ccc4O)C(O)c3ccc(c(Cl)c3)Oc3cc2cc(c3OC2OC(CO)C(O)C(O)C2OC2CC(C)(N)C(O)C(C)O2)Oc2ccc(cc2Cl)C1O (stereo not drawn) [Vanc-88] ; pIC50 = 4.07
